Recorded measurements of MIC, one per entry
System: methicillin-resistant Staphylococcus aureus (MRSA) clinical isolates
Assay: Broth microdilution MIC, clinical MRSA isolates
Format: cell-based
Settings: clinical isolate 24,268 MRSA; 24 h, 0.08–40 μM; read-out: MIC 24,268 MRSA

- compound: "Cc1c(C)c(C)[c-](C)c1C.F[P-](F)(F)(F)(F)F.N[C@@H]1[C@@H](OCc2ccccc2)[C@H](OCc2ccccc2)[C@@H](COCc2ccccc2)O[C@H]1c1ccccn1.[Cl][Ir+2] [Ir-3a]"
  qualifierOperator: "="
  MIC, µM: 5
- compound: "Cc1ccc(C(C)C)cc1.F[P-](F)(F)(F)(F)F.N[C@@H]1[C@@H](OCc2ccccc2)[C@H](OCc2ccccc2)[C@@H](COCc2ccccc2)O[C@H]1c1cnccn1.[Cl][Ru+] [Ru-3d]"
  qualifierOperator: "="
  MIC, µM: 20
- compound: "Cc1ccc(C(C)C)cc1.F[P-](F)(F)(F)(F)F.N[C@@H]1[C@@H](OC(=O)c2ccccc2)[C@H](OC(=O)c2ccccc2)[C@@H](COC(=O)c2ccccc2)O[C@H]1c1ccccn1.[Cl][Ru+] [Ru-7a]"
  qualifierOperator: "="
  MIC, µM: 5
- compound: "Cc1ccc(C(C)C)cc1.F[P-](F)(F)(F)(F)F.N[C@@H]1[C@@H](OC(=O)c2ccccc2)[C@H](OC(=O)c2ccccc2)[C@@H](COC(=O)c2ccccc2)O[C@H]1c1ccc2ccccc2n1.[Cl][Ru+] [Ru-7e]"
  qualifierOperator: ">"
  MIC, µM: 40
- compound: "Cc1c(C)c(C)[c-](C)c1C.F[P-](F)(F)(F)(F)F.NC1C(c2cccnn2)OC(COC(=O)c2ccccc2)C(OC(=O)c2ccccc2)C1OC(=O)c1ccccc1.[Cl][Ir+2] (mixture of isomers) [Ir-7b]"
  qualifierOperator: "="
  MIC, µM: 40
- compound: "Cc1c(C)c(C)[c-](C)c1C.F[P-](F)(F)(F)(F)F.N[C@@H]1[C@@H](OCc2ccccc2)[C@H](OCc2ccccc2)[C@@H](COCc2ccccc2)O[C@H]1c1ccccn1.[Cl][Rh+2] [Rh-3a]"
  qualifierOperator: ">"
  MIC, µM: 40
